System: Mye-BP RUNX1 p.R162K
Assay: drug sensitivity score (DSS) (DSS score); higher = more sensitive (stronger growth inhibition); extreme values may be limits of the assay
readout kind: drug sensitivity score

The cases that follow already have their drug sensitivity score on record.
INSERT INTO measurements (compound, value_observed) VALUES
  ('Nc1ncn([C@@H]2O[C@H](CO)[C@@H](O)[C@H]2O)c(=O)n1', 5.29),
  ('COc1ccc(S(=O)(=O)Nc2cccnc2Nc2ccc(O)cc2)cc1', 9.88),
  ('COc1cc(Nc2ncc3c(n2)-c2ccc(Cl)cc2C(c2c(F)cccc2OC)=NC3)ccc1C(=O)O', 18.7);

Then there is this compound:
Ask | I have this compound here, C[C@]1(c2nc3c(C(N)=O)cccc3[nH]2)CCCN1 , and I need its recorded drug sensitivity score.
Reply | 2.76

====

System: Ba/F3 P210-BCR-ABL1 RUNX1wt/wt control (mouse)
Assay: drug sensitivity score (DSS) (DSS score); higher = more sensitive (stronger growth inhibition); extreme values may be limits of the assay
Category key, based on recorded drug sensitivity score: lower: < 2; middle: ≥ 2 and < 6; upper: ≥ 6

For orientation, consider the following solved cases.
INSERT INTO results (compound, measured_target, classification) VALUES
  ('CC(=O)c1c(C)c2cnc(Nc3ccc(N4CCNCC4)cn3)nc2n(C2CCCC2)c1=O', 'Ba/F3 P210-BCR-ABL1 RUNX1wt/wt control (mouse)', 'middle'),
  ('CC[C@@]1(O)C(=O)OCc2c1cc1n(c2=O)Cc2cc3c(CN(C)C)c(O)ccc3nc2-1', 'Ba/F3 P210-BCR-ABL1 RUNX1wt/wt control (mouse)', 'upper'),
  ('CN1CCC(COc2cnc(-c3cccc(Cn4nc(-c5cccc(C#N)c5)ccc4=O)c3)nc2)CC1', 'Ba/F3 P210-BCR-ABL1 RUNX1wt/wt control (mouse)', 'lower'),
  ('Cn1cc(-c2cnn3c(N)c(Br)c([C@@H]4CCCNC4)nc23)cn1', 'Ba/F3 P210-BCR-ABL1 RUNX1wt/wt control (mouse)', 'lower'),
  ('CCOC(=O)C1=CCCC[C@H]1S(=O)(=O)Nc1ccc(F)cc1Cl', 'Ba/F3 P210-BCR-ABL1 RUNX1wt/wt control (mouse)', 'lower'),
  ('CN1CCN(c2ccc3nc(-c4c(N)c5c(F)cccc5[nH]c4=O)[nH]c3c2)CC1', 'Ba/F3 P210-BCR-ABL1 RUNX1wt/wt control (mouse)', 'lower'),
  ('Nc1ncn([C@@H]2O[C@H](CO)[C@@H](O)[C@H]2O)c(=O)n1', 'Ba/F3 P210-BCR-ABL1 RUNX1wt/wt control (mouse)', 'middle'),
  ('Cc1cc(Nc2cc(N3CCN(C)CC3)nc(/C=C/c3ccccc3)n2)n[nH]1', 'Ba/F3 P210-BCR-ABL1 RUNX1wt/wt control (mouse)', 'middle'),
  ('CCNC(=O)c1noc(-c2cc(C(C)C)c(O)cc2O)c1-c1ccc(CN2CCOCC2)cc1', 'Ba/F3 P210-BCR-ABL1 RUNX1wt/wt control (mouse)', 'upper'),
  ('Nc1cc(C(F)(F)F)c(-c2cc(N3CCOCC3)nc(N3CCOCC3)n2)cn1', 'Ba/F3 P210-BCR-ABL1 RUNX1wt/wt control (mouse)', 'middle');

Ask | Which class holds O=C(/C=C\n1cnc(-c2cc(C(F)(F)F)cc(C(F)(F)F)c2)n1)NNc1cnccn1 [Selinexor] ?
Reply | upper

Ask | Try this compound next: Nc1ncnc2c1nc(Cl)n2[C@@H]1O[C@H](CO)[C@@H](O)[C@H]1O
Reply | upper

Ask | Try this compound next: Cc1cnc(Nc2ccc(OCCN3CCCC3)cc2)nc1Nc1cccc(S(=O)(=O)NC(C)(C)C)c1
Reply | middle

Ask | Try this compound next: CCOc1ccccc1-n1c(C(C)N2CCN(C(=O)COc3ccc(Cl)cc3)CC2)nc2ccccc2c1=O (configuration not stated)
Reply | lower

Ask | Try this compound next: C[C@@H]1C=C2C(=O)O[C@@H]3CC[C@H](C1)[C@]23O
Reply | middle

Ask | Try this compound next: NC(=O)NO [Hydroxyurea]
Reply | upper

Ask | Try this compound next: CN(CC(=O)N(Cc1ccc(C2CCCCC2)cc1)c1ccc(C(=O)O)cc1)S(=O)(=O)c1c(F)c(F)c(F)c(F)c1F
Reply | middle

====

Tested on: Mye-BP RUNX1 p.R107C
Test: drug sensitivity score (DSS) (DSS score); higher = more sensitive (stronger growth inhibition); extreme values may be limits of the assay
readout kind: drug sensitivity score
# output: bare number, no unit

The cases that follow already have their drug sensitivity score on record.
INSERT INTO results (compound, measured_target, value_observed) VALUES
  ('COc1cc2c(N3CCN(C(=O)Nc4ccc(OC(C)C)cc4)CC3)ncnc2cc1OCCCN1CCCCC1 [Tandutinib]', 'Mye-BP RUNX1 p.R107C', 2.3),
  ('C[C@@H]1C[C@H]2[C@@H]3CCC4=CC(=O)C=C[C@]4(C)[C@@]3(F)[C@@H](O)C[C@]2(C)[C@@]1(O)C(=O)CO [Dexamethasone]', 'Mye-BP RUNX1 p.R107C', 0.8),
  ('CO[C@H]1C[C@@H]2CC[C@@H](C)[C@@](O)(O2)C(=O)C(=O)N2CCCC[C@H]2C(=O)O[C@H]([C@H](C)C[C@@H]2CC[C@@H](OC(=O)C(C)(CO)CO)[C@H](OC)C2)CC(=O)[C@H](C)/C=C(\C)[C@@H](O)[C@@H](OC)C(=O)[C@H](C)C[C@H](C)/C=C/C=C/C=C/1C [Temsirolimus]', 'Mye-BP RUNX1 p.R107C', 4.6),
  ('C#Cc1cccc(Nc2ncnc3cc(OCCOC)c(OCCOC)cc23)c1 [Erlotinib]', 'Mye-BP RUNX1 p.R107C', 2.1),
  ('NC(=O)NO [Hydroxyurea]', 'Mye-BP RUNX1 p.R107C', 0);

Then there is this compound:
Ask | I have this compound here, C[C@]12O[C@H](C[C@]1(O)CO)n1c3ccccc3c3c4c(c5c6ccccc6n2c5c31)CNC4=O [Lestaurtinib] , and I need its recorded drug sensitivity score.
Reply | 7.2

====

System: Ly-BP RUNX1 p.R204Q
Assay: drug sensitivity score (DSS) (DSS score); higher = more sensitive (stronger growth inhibition); extreme values may be limits of the assay
readout kind: drug sensitivity score
# output: bare number, no unit

INSERT INTO measurements (compound, measured_target, readout_kind, value_observed) VALUES
  ('C[C@@H](C(=O)O)c1ccc(-c2ccccc2)c(F)c1', 'Ly-BP RUNX1 p.R204Q', 'drug sensitivity score', 0),
  ('CO[C@@]12[C@H](COC(N)=O)C3=C(C(=O)C(C)=C(N)C3=O)N1C[C@@H]1N[C@@H]12', 'Ly-BP RUNX1 p.R204Q', 'drug sensitivity score', 11.2),
  ('CN1CCN(c2nc(C3=C(c4c[nH]c5ccccc45)C(=O)NC3=O)c3ccccc3n2)CC1', 'Ly-BP RUNX1 p.R204Q', 'drug sensitivity score', 0),
  ('NC1(c2ccc(-c3nc4ccn5c(=O)[nH]nc5c4cc3-c3ccccc3)cc2)CCC1', 'Ly-BP RUNX1 p.R204Q', 'drug sensitivity score', 11.9),
  ('Clc1ccc(Nc2nnc(Cc3ccncc3)c3ccccc23)cc1', 'Ly-BP RUNX1 p.R204Q', 'drug sensitivity score', 0);

Ask | I have this compound here, COc1cc2c(N3CCN(C(=O)Nc4ccc(OC(C)C)cc4)CC3)ncnc2cc1OCCCN1CCCCC1 , and I need its recorded drug sensitivity score.
Reply | 0

Ask | Try this compound next: CN1CCN(c2ccc3nc(-c4c(N)c5c(F)cccc5[nH]c4=O)[nH]c3c2)CC1
Reply | 0

Ask | Try this compound next: Nc1cccc2c1CN(C1CCC(=O)NC1=O)C2=O (stereo not drawn) [Lenalidomide]
Reply | 0

====

Test system: Ba/F3 P210-BCR-ABL1 RUNX1-/mut (mouse)
Assay: drug sensitivity score (DSS) (DSS score); higher = more sensitive (stronger growth inhibition); extreme values may be limits of the assay
# if value of drug sensitivity score reaches 2, tag T; if it stays below, tag F

Ask | Quick check: does O=C(Nc1cc(Cl)cc2c1[nH]c1cnccc12)c1cccnc1 have drug sensitivity score greater than or equal to 2?
Reply | F

Ask | Try this compound next: Nc1nc(N)c2nc(-c3cccc(O)c3)c(-c3cccc(O)c3)nc2n1
Reply | T

Ask | Try this compound next: CC[C@@H](C(=O)[C@@H](C)[C@@H](O)[C@H](C)[C@@H]1O[C@@H]([C@@H](CC)C(=O)O)CC[C@@H]1C)[C@H]1O[C@]2(C=C[C@@H](O)[C@]3(CC[C@@](C)([C@H]4CC[C@](O)(CC)[C@H](C)O4)O3)O2)[C@H](C)C[C@@H]1C
Reply | T
